target-or-test-system: T1, HMGB1 domain A C44A (UniProt P09429 9-79, C45A)
T1 sequence: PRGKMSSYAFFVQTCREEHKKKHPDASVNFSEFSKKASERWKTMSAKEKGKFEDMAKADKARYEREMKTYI
protocol-notes: EMSA
pKd: −log10 of the molar value.

binder: 25-bp cisplatin-modified TGGA probe (dsDNA, cisplatin 1,2-d(GpG) intrastrand cross-link at N7 of G13 and G14 of strand 1) DNA 1: CCTCTCCTCTCTGGATCTTCTCTCC DNA 2: GGAGAGAAGATCCAGAGAGGAGAGG
pKd: 8.62
